Measured values drawn from the CombiSolv-Exp solvation set (Vermeire and Green 2021) for this set.

Assay: solvent given as SMILES
Conditions: in CCCC(=O)OCC
VALUE_KIND: solvation free energy, 298 K (kJ/mol)

In [3]: df
Out[3]:
   structure_as_smiles    val
0               CCCCCC  -15.2
1            CCCCCCCCC  -23.3
2         CC(C)CCC(C)C  -18.9
3       CC(C)C(C)C(C)C  -19.3
4                CCCCC  -12.6
5              CCCCCCC  -18.2
6             CCCCCCCC  -20.7

====

Experiment: solvent given as SMILES
Conditions: in C=CCCCCCCCC
Attribute: solvation free energy, 298 K
VALUE_KIND: solvation free energy, 298 K (kcal/mol)

In [3]: df
Out[3]:
   structure_as_smiles    val
0         CC(C)CCC(C)C  -4.75
1              CCCCCCC  -4.55
2             CCCCCCCC  -5.23
3            CCCCCCCCC  -5.89
4       CC(C)C(C)C(C)C  -4.84
5                CCCCC  -3.16
6               CCCCCC  -3.92

====

Test: solvent given as SMILES
Conditions: in O=C1CCCCC1
VALUE_KIND: solvation free energy, 298 K (kcal/mol)

>>> print(df.to_string())
           structure_as_smiles  unit_name    val
 0                       CCCCC   kcal/mol  -2.73
 1                        CC#N   kcal/mol   -4.3
 2                   CCOC(C)=O   kcal/mol  -4.33
 3                   FC(F)(F)F   kcal/mol   1.41
 4               C[N+](=O)[O-]   kcal/mol  -5.07
 5                    C=CC(C)C   kcal/mol  -2.61
 6              O=C(O)CCC(=O)O   kcal/mol  -11.7
 7                CC(C)CCC(C)C   kcal/mol   -4.2
 8              CC(C)C(C)C(C)C   kcal/mol  -4.32
 9  c1cc2ccc3cccc4ccc(c1)c2c34   kcal/mol  -13.2
10                    CC=C(C)C   kcal/mol  -3.09
11                    CCCCCCCC   kcal/mol  -4.63
12              c1ccc2ccccc2c1   kcal/mol  -7.72
13                          CI   kcal/mol  -3.58
14                         CCO   kcal/mol  -4.34
15                       CCCCl   kcal/mol  -3.67
16        c1ccc2cc3ccccc3cc2c1   kcal/mol  -11.6
17                         CCI   kcal/mol  -4.18
18                   CCCCCCCCC   kcal/mol  -5.24
19                     CC(C)=O   kcal/mol   -3.8
20                      CCCCCC   kcal/mol  -3.37
21                     CCCCCCC   kcal/mol     -4

====

Attribute: solvation free energy, 298 K
Assay: solvent given as SMILES
Details: in CCCCCCC
VALUE_KIND: solvation free energy, 298 K (kcal/mol)

>>> df
                          compound  unit_name    val
 0                   C[N+](=O)[O-]   kcal/mol  -2.62
 1   O=[N+]([O-])c1cc[n+]([O-])cc1   kcal/mol  -7.12
 2                          CCCCCC   kcal/mol  -3.97
 3                   Oc1ccc(Cl)cc1   kcal/mol  -6.89
 4                     N#Cc1ccccc1   kcal/mol  -5.33
 5                     CCC(C)(C)OC   kcal/mol  -4.24
 6                Cc1cc(C)c(C)cc1C   kcal/mol  -7.19
 7                  c1ccc2ccccc2c1   kcal/mol  -7.22
 8                 Oc1ccc(Cl)cc1Cl   kcal/mol  -6.85
 9      CCC(C)O (stereo not drawn)   kcal/mol  -3.28
10                         CC(C)=O   kcal/mol  -2.57
11             c1ccc(-c2ccccc2)cc1   kcal/mol  -8.54
12                     O=Cc1ccccc1   kcal/mol   -5.5
13          c1ccc2c(c1)Sc1ccccc1S2   kcal/mol  -11.3
14    O=[N+]([O-])c1ccc(Cl)c(Cl)c1   kcal/mol  -7.65
15            c1ccc2cc3ccccc3cc2c1   kcal/mol  -10.2
16                       CCOC(C)=O   kcal/mol  -3.53
17       O=S(=O)(c1ccccc1)c1ccccc1   kcal/mol  -11.8
18  CCc1ccc2c(c1)C(=O)c1ccccc1C2=O   kcal/mol    -12
19                   Cc1ccc(O)cc1C   kcal/mol  -6.89
20                  CC(=O)C(C)(C)C   kcal/mol   -4.3
21                      FC(F)(F)Cl   kcal/mol   -0.6
22                        CCCCCCCC   kcal/mol  -5.37
23                            C=CC   kcal/mol  -1.74
24                      CCc1ccccc1   kcal/mol  -5.36
25                 Oc1cccc2ccccc12   kcal/mol  -8.75
26                    CC(C)CCC(C)C   kcal/mol   -4.9
27                      CCCCC(C)=O   kcal/mol  -4.55
28                    Oc1cccc(O)c1   kcal/mol  -5.84
29   CC(C)(c1ccc(O)cc1)c1ccc(O)cc1   kcal/mol    -13
30                           CCCCC   kcal/mol  -3.27
31                 Cc1ccc(C)c(O)c1   kcal/mol  -6.44
32                 Oc1ccc2ccccc2c1   kcal/mol  -8.53
33                       Oc1ccccc1   kcal/mol  -4.97
34                 Cc1ccc(O)c(C)c1   kcal/mol  -6.48
35                         C1CCOC1   kcal/mol   -3.7
36      c1cc2ccc3cccc4ccc(c1)c2c34   kcal/mol  -11.6
37                         CCCCCCO   kcal/mol  -5.27

====

Test: solvent given as SMILES
Details: in CCBr
Binary call on solvation free energy, 298 K with cut-off -5 kcal/mol: strictly below means MET, and equality or higher means NOT MET.

>>> print(df.to_string())
   structure_as_smiles  qualitative_label
0              CCCCCCC            NOT MET
1                CCCCC            NOT MET
2               CCCCCC            NOT MET
3        C[N+](=O)[O-]            NOT MET
4             CCCCCCCC                MET
5            CCCCCCCCC                MET

====

Experiment: solvent given as SMILES
Conditions: in N#Cc1ccccc1
Attribute: solvation free energy, 298 K
VALUE_KIND: solvation free energy, 298 K

>>> df
          structure_as_smiles                    value_kind             val
0                     CCCCCCC  solvation free energy, 298 K  -3.76 kcal/mol
1                     C=C(C)C  solvation free energy, 298 K  -1.97 kcal/mol
2                      CCCCCC  solvation free energy, 298 K  -3.13 kcal/mol
3  c1cc2ccc3cccc4ccc(c1)c2c34  solvation free energy, 298 K  -13.1 kcal/mol
4                    CC=C(C)C  solvation free energy, 298 K  -2.89 kcal/mol
5              CC(C)C(C)C(C)C  solvation free energy, 298 K  -4.01 kcal/mol
6                     C=CC=CC  solvation free energy, 298 K  -3.26 kcal/mol
7        c1ccc2cc3ccccc3cc2c1  solvation free energy, 298 K  -11.4 kcal/mol
8                          CI  solvation free energy, 298 K  -3.41 kcal/mol
9                       CCCCC  solvation free energy, 298 K  -2.48 kcal/mol
